pIC50 by entry:
molecular target: UniProt Q5TCX8; assay: pIC50, kinobeads binding competition; conditions: cell material: Lysate mix
Sequence (Q5TCX8 whole entry): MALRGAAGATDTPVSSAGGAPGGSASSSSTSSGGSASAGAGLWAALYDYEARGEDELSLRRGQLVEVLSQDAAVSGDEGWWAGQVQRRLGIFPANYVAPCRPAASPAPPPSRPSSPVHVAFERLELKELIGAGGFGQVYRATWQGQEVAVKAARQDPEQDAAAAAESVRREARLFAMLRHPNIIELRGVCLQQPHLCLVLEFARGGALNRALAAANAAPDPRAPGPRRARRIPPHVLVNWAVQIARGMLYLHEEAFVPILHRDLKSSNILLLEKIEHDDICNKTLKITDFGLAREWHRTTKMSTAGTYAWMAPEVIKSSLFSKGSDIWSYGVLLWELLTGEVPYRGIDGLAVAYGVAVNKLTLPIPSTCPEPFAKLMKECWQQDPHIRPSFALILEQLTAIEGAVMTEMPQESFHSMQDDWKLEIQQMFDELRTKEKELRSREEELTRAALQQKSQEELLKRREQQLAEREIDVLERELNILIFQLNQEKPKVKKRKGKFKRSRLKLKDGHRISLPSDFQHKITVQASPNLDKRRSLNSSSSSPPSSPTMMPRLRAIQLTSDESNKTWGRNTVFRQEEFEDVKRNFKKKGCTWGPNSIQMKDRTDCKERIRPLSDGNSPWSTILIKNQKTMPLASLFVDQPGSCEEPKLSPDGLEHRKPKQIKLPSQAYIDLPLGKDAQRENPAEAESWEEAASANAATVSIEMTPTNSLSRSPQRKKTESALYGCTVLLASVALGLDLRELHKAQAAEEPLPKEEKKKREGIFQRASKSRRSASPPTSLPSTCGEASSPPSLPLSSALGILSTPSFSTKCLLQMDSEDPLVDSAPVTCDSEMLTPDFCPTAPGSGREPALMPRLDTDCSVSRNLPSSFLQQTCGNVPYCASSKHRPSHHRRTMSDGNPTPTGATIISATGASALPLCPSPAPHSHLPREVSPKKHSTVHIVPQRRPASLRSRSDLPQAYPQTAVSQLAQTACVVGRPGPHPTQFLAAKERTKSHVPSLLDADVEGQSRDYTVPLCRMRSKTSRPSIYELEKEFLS

Some compounds with known pIC50 results, for comparison:
CCNC(=O)c1cc(Nc2cc(C3CC3)[nH]n2)nc(N2CCN(Cc3ccc(S(=O)(=O)F)cc3)CC2)n1
4.65
C#CCNC(=O)c1cc(Nc2cc(C)[nH]n2)nc(N2CCN(Cc3ccc(S(=O)(=O)F)cc3)CC2)n1
< 4.52
CCNC(=O)c1cc(Nc2cc(C)[nH]n2)nc(N2CCN(Cc3ccc(S(=O)(=O)F)cc3)CC2)n1
< 4.52
C#CCNC(=O)c1cc(Nc2cc(C3CC3)[nH]n2)nc(N2CCN(Cc3ccc(S(=O)(=O)F)cc3)CC2)n1
4.8
O=C(NCCNC(=O)c1cc(Nc2cc(C3CC3)[nH]n2)nc(N2CCN(Cc3ccc(S(=O)(=O)F)cc3)CC2)n1)OC1CC/C=C/CCC1 (stereo unspecified)
< 4.52

Here's the next entry for you.
What measured pIC50 is associated with Cc1cc(Nc2cc(C(=O)NCCNC(=O)OC3CC/C=C/CCC3)nc(N3CCN(Cc4ccc(S(=O)(=O)F)cc4)CC3)n2)n[nH]1 (stereo unspecified) on UniProt Q5TCX8? < 4.52
